Dear all, this message contains IC50 results, target or system cGMP-specific 3',5'-cyclic phosphodiesterase (Homo sapiens, UniProt O76074).
Write the value in µM as a bare number.

# CHEMICAL SMILES, READOUT NAME, UNIT, NUMERIC READOUT
records = [
    ("CCOc1ccc(S(=O)(=O)N2CCN(CCN(C)C)CC2)cc1-c1nc2c([nH]1)c(=O)n(C)c(=O)n2CC(C)C", "IC50", "µM", 0.063),
    ("CCCOc1ccc(S(=O)(=O)N(C)CCN(C)C)cc1-c1nc2c(=O)n(C)c(=O)n(CC(C)C)c2[nH]1", "IC50", "µM", 0.016),
    ("CCOc1ccc(S(=O)(=O)N2CCN(C)CC2)cc1-c1nc2c(=O)n(C)c(=O)n(CC3CC3)c2[nH]1", "IC50", "µM", 0.028),
    ("CCCOc1ccc(S(=O)(=O)N2CCN(CCOC)CC2)cc1-c1nc2c([nH]1)c(=O)n(C)c(=O)n2CC(C)C", "IC50", "µM", 0.012),
    ("CC(C)Cn1c(=O)n(C)c(=O)c2[nH]c(-c3cc(S(=O)(=O)N4CCN(C)CC4)ccc3OC(C)C)nc21", "IC50", "µM", 0.016),
]

Hey, cGMP-specific 3',5'-cyclic phosphodiesterase (Homo sapiens, UniProt O76074) data for "CCCOc1ccc(S(=O)(=O)N2CCN(CCO)CC2)cc1-c1nc2c(=O)n(C)c(=O)n(CC(C)C)c2[nH]1" : IC50 came out at 0.0035

* * *

experiment: The pharmacokinetic property, Half-life in rat in vivo; format: ADME, organism-based
READOUT NAME: half-life (h)
Write the value in h as a bare number.

Lookup result for "CCOc1ccc(S(=O)(=O)N2CCN(C)CC2)cc1-c1nc2c([nH]1)c(=O)n(C)c(=O)n2CC(C)C" ; measured half-life: 1.53

* * *

biological target: cGMP-specific 3',5'-cyclic phosphodiesterase (Homo sapiens)
Quick list: IC50 per entry.
Write the value in nM as a bare number.

# CHEMICAL SMILES, NUMERIC READOUT
records = [
    ("CCOc1ccc(S(=O)(=O)N2CCN(C)CC2)cc1-c1nc2c(=O)n(C)c(=O)n(CC3CCCCC3)c2[nH]1", 160),
    ("CC(C)Cn1c(=O)n(C)c(=O)c2[nH]c(-c3ccccc3OC(C)C)nc21", 77),
]

From here, focus on the item given below.
Lookup result for "CCCOc1ccc(S(=O)(=O)N(CC)CCN(C)C)cc1-c1nc2c(=O)n(C)c(=O)n(CC(C)C)c2[nH]1" ; measured IC50: 11

* * *

experiment: Kinetic solubility at pH 5.9; format: physicochemical; conditions: buffer
READOUT NAME: solubility kinetic

Lookup result for "CCOc1ccc(S(=O)(=O)N2CCN(C)CC2)cc1-c1nc2c([nH]1)c(=O)n(C)c(=O)n2CC(C)C" ; measured solubility kinetic: > 160 µg/mL

* * *

assay: In vitro microsome metabolism clearance in rat was determined; assay type: ADME; conditions: microsomes
Quick list: microsomal CLint per entry.
Write the value in µL/min/mg as a bare number.

Observe how each entry below is paired with its result.
# COMPOUND, microsomal CLint, µL/min/mg
rows = [
    ("CCOc1ccc(S(=O)(=O)N2CCN(C)CC2)cc1-c1nc2c(=O)n(C)c(=O)n(CC(C)CC)c2[nH]1 (stereo not drawn)", 178),
    ("CCCOc1ccc(S(=O)(=O)N2CCN(C(=O)N(C)C)CC2)cc1-c1nc2c(=O)n(C)c(=O)n(CC(C)C)c2[nH]1", 185),
]

Lookup result for "CCCOc1ccc(S(=O)(=O)N2CCC(CCO)CC2)cc1-c1nc2c([nH]1)c(=O)n(C)c(=O)n2CC(C)C" ; measured microsomal CLint: 226

* * *

Quick list: half-life per entry.
assay: The pharmacokinetic property, Half-life was determined; assay type: ADME, organism-based; settings: rat, in vivo
Write the value in min as a bare number.

# COMPOUND, half-life / min
records = [
    ("CCCOc1ccc(S(=O)(=O)N2CCN(C(=O)N(C)C)CC2)cc1-c1nc2c(=O)n(C)c(=O)n(CC(C)C)c2[nH]1", 22),
]

From here, focus on the item given below.
Lookup result for CCOc1ccc(S(=O)(=O)N2CCN(C)CC2)cc1-c1nc2c(=O)n(C)c(=O)n(CC(C)CC)c2[nH]1 (configuration not stated) ; measured half-life: 92

* * *

test: Partition coefficient (logP); type: physicochemical; conditions: octanol/water
Returns Criterion met if the recorded logP is greater than or equal to 4, and Criterion not met otherwise.

Task: In plain terms: is recorded logP at least 4 for "CCCOc1ccc(S(=O)(=O)N(C)CCN(C)C)cc1-c1nc2c(=O)n(C)c(=O)n(CC(C)C)c2[nH]1" ?
Result: Criterion met

Task: In plain terms: is recorded logP at least 4 for CCOc1ccc(S(=O)(=O)N2CCN(C)CC2)cc1-c1nc2c(=O)n(C)c(=O)n(CC(C)CC)c2[nH]1 (stereo not given) ?
Result: Criterion not met

Task: In plain terms: is recorded logP at least 4 for "CCCOc1ccc(S(=O)(=O)N2CCC(CCO)CC2)cc1-c1nc2c([nH]1)c(=O)n(C)c(=O)n2CC(C)C" ?
Result: Criterion not met

Task: In plain terms: is recorded logP at least 4 for "CCOc1ccc(S(=O)(=O)N2CCN(C)CC2)cc1-c1nc2c([nH]1)c(=O)n(C)c(=O)n2CC(C)C" ?
Result: Criterion not met

* * *

assay: Kinetic solubility at pH 5, ca; type: physicochemical; details: buffer
READOUT NAME: solubility kinetic (µg/mL)
Write the value in µg/mL as a bare number.

Lookup result for "CCCOc1ccc(S(=O)(=O)N2CCN(C(=O)N(C)C)CC2)cc1-c1nc2c(=O)n(C)c(=O)n(CC(C)C)c2[nH]1" ; measured solubility kinetic: 25

* * *

target: Phosphodiesterase 1 (Bos taurus, UniProt Q01061+P14100); test: Inhibition of bovine heart Phosphodiesterase 1 (PDE1); assay type: protein assay
READOUT NAME: IC50

Observe how each entry below is paired with its result.
# COMPOUND, READOUT NAME, RESULT
measured = [
    ("CCOc1ccc(S(=O)(=O)N2CCN(C)CC2)cc1-c1nc2c(=O)n(C)c(=O)n(CC3CC3)c2[nH]1", "IC50", "> 10 µM"),
    ("CCOc1ccc(S(=O)(=O)N2CCN(C)CC2)cc1-c1nc2c(=O)n(C)c(=O)n(CC(C)C)c2[nH]1", "IC50", "3.38 µM"),
    ("CCOc1ccc(S(=O)(=O)N2CCN(C)CC2)cc1-c1nc2c(=O)n(C)c(=O)n(CC(C)CC)c2[nH]1 (stereo unspecified)", "IC50", "> 10 µM"),
    ("C=CCCn1c(=O)n(C)c(=O)c2nc(-c3cc(S(=O)(=O)N4CCN(C)CC4)ccc3OCC)[nH]c21", "IC50", "> 10 µM"),
    ("CCOc1ccc(S(=O)(=O)N2CCN(C)CC2)cc1-c1nc2c(=O)[nH]c(=O)n(CC(C)C)c2[nH]1", "IC50", "> 10 µM"),
]

Hey, Phosphodiesterase 1 (Bos taurus, UniProt Q01061+P14100) data for "CCOc1ccc(S(=O)(=O)N2CCN(C)CC2)cc1-c1nc2c(=O)n(C)c(=O)n(Cc3ccc(OC)cc3)c2[nH]1" : IC50 came out at 4.52 µM

* * *

assay: Ratio of IC50 against human platelet PDE5 to that against bovine retina PDE6
Quick list: Ratio per entry.
Write the value as a bare number.

Observe how each entry below is paired with its result.
# CHEMICAL SMILES, Ratio
rows = [
    ("CC(C)COc1ccc(S(=O)(=O)N2CCN(C)CC2)cc1-c1nc2c(=O)n(C)c(=O)n(CC(C)C)c2[nH]1", 1.1),
    ("CCCOc1ccc(S(=O)(=O)N2CCN(CC)CC2)cc1-c1nc2c(=O)n(C)c(=O)n(CC(C)C)c2[nH]1", 0.5),
    ("CCCOc1ccc(S(=O)(=O)N2CCN(CCO)CC2)cc1-c1nc2c(=O)n(C)c(=O)n(CC(C)C)c2[nH]1", 4),
]

From here, focus on the item given below.
Lookup result for "CCCOc1ccc(S(=O)(=O)N2CCN(C(=O)N(C)C)CC2)cc1-c1nc2c(=O)n(C)c(=O)n(CC(C)C)c2[nH]1" ; measured Ratio: 4

* * *

assay: Ratio of IC50 against human platelet PDE5 to that against bovine retina PDE6
READOUT NAME: Ratio

# CHEMICAL SMILES, READOUT NAME, RESULT
rows = [
    ("CCOc1ccc(S(=O)(=O)N2CCN(CCO)CC2)cc1-c1nc2c(=O)n(C)c(=O)n(CC(C)C)c2[nH]1", "Ratio", 3.5),
]

Lookup result for "CCOc1ccc(S(=O)(=O)N2CCN(CC)CC2)cc1-c1nc2c(=O)n(C)c(=O)n(CC(C)C)c2[nH]1" ; measured Ratio: 7.5

Lookup result for "CCCOc1ccc(S(=O)(=O)N2CCN(C)CC2)cc1-c1nc2c(=O)n(C)c(=O)n(CC(C)C)c2[nH]1" ; measured Ratio: 0.6

Lookup result for "CCOc1ccc(S(=O)(=O)N2CCN(CCN(C)C)CC2)cc1-c1nc2c(=O)n(C)c(=O)n(CC(C)C)c2[nH]1" ; measured Ratio: 2.5

Lookup result for "CCCOc1ccccc1-c1nc2c(=O)n(C)c(=O)n(CC(C)C)c2[nH]1" ; measured Ratio: 1.4

src = ChEMBL document CHEMBL1136031
